Give measured Activity at 133 nM Antibody Concentration (% Survival Inhibition), N = 2 for each item. Keep answers brief.
# assayed.system: KDR (human, UniProt P35968 20-1356)
# Sequence (P35968 20-1356): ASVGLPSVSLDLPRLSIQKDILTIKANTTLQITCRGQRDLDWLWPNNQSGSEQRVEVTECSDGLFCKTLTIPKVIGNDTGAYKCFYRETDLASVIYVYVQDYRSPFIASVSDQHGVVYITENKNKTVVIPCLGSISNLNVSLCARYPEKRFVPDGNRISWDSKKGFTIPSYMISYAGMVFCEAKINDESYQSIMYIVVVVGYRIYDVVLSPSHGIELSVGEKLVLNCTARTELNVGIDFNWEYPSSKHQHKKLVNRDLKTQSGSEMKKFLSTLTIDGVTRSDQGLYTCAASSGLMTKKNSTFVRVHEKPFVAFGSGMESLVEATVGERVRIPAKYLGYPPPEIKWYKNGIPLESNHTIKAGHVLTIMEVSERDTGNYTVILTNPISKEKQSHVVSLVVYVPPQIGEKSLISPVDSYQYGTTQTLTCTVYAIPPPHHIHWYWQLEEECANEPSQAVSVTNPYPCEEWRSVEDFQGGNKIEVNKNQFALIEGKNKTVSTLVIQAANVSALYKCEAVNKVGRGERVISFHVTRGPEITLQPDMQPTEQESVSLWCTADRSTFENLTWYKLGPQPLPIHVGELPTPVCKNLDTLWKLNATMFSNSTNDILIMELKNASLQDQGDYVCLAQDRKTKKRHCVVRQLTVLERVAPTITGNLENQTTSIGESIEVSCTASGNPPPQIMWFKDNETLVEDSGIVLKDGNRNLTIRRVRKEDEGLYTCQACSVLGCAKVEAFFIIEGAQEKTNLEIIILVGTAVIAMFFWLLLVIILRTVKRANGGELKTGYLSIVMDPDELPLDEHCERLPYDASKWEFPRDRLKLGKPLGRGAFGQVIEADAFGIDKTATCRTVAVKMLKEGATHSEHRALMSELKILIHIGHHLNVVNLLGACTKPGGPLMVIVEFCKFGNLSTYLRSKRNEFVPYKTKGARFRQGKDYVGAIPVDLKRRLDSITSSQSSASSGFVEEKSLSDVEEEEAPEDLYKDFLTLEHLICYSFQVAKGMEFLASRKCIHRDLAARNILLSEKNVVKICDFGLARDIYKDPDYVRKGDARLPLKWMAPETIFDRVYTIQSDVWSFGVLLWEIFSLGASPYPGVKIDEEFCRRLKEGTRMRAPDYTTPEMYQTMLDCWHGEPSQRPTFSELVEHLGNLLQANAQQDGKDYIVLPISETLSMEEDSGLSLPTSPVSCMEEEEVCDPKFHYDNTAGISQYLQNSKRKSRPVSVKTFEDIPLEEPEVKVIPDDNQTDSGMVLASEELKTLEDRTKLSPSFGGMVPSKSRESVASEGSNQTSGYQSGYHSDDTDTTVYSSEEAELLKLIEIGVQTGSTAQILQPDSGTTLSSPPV
# test.name: cell-based or functional assay
Just the number please, in %, no unit attached.

Query: Need Activity at 133 nM Antibody Concentration (% Survival Inhibition), N = 2, item 33E1 (antibody, V domains shown) VH: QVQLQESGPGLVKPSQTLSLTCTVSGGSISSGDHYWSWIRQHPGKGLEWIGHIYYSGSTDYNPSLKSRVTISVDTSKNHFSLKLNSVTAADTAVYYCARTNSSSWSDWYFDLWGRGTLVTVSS VL: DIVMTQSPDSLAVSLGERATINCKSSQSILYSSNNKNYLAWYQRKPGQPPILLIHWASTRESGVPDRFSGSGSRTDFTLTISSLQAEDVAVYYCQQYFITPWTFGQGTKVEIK
Result: 97

Query: Need Activity at 133 nM Antibody Concentration (% Survival Inhibition), N = 2, item 32F4 (antibody, V domains shown) VH: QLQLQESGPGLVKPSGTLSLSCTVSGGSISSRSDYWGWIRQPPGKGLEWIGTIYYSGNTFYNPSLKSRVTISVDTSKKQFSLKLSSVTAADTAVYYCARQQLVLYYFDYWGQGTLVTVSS VL: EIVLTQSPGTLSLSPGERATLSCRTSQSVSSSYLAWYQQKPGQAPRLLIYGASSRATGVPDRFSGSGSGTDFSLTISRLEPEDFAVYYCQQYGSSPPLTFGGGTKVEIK
Result: 58

Query: Need Activity at 133 nM Antibody Concentration (% Survival Inhibition), N = 2, item 30D7 (antibody, V domains shown) VH: QVPLVESGGGVVQPGRSLRLSCAASGFTFSSYGMHWVRQAPGKGLEWVAVIWYDGSNKYYADSVKGRFTISRDNSKNTLYLQMNSLRAEDTAVYYCARGVTMVRGVIIARYYYGLDVWGQGTTVTVSS VL: DIVMTQTPLSSPVTLGQPASISCRSSQSLVHSDGNTYLSWLQQRPGQPPRLLIYKISNRFFGVPDRFSGSGAGTDFTLKIGRVEAEDVGLYYCMQSTQFPLTFGGGTKVEIK
Result: -92

Query: Need Activity at 133 nM Antibody Concentration (% Survival Inhibition), N = 2, item 33C3 (antibody, V domains shown) VH: QVQLVESGGGLVKPGESLRLSCAASGFTFSDYYMSWIRQAPGKGLEWVSYISHGGSTIYYADSVKGRFTISRDNAKNSLYLQMNSLRVEDTAVYFCARDDFWSGYYFNWFDPWGQGALVTVSS VL: DIQMTQYPLSLSASVGDRVTITCRASQSISSFLNWYHQKPGKAPKLLIYGTSSLQSGVPSRFSGSGSGTDFTLTISSLQPEDFATYYCQQTYSIPLTFGGGTNVEIK
Result: 102

Query: Need Activity at 133 nM Antibody Concentration (% Survival Inhibition), N = 2, item 29F7 (antibody, V domains shown) VH: QVQLVQSGAEVKKPGASVKVSCKASGYTFTSYDINWVRQATGQGLEWMGWMNPNSGKTGYAQKFQGRVTMTRSTSISTAYMELSSLRSEDTAVYYCARGGYSNLGWFDPWGQGTLVTVSS VL: DIQMTQSPSSVFASVGDRVTITCRASQGISTWLAWYQQKPGKAPKFLIYAASSLQSGVPSRFSGSGSGTDFTLTISSLQPDDFATYYCQQANNFPFTFGPGTKVDIK
Result: -27

Query: Need Activity at 133 nM Antibody Concentration (% Survival Inhibition), N = 2, item 1G6 (antibody, V domains shown) VH: EVQLLESGGGLVQPGGSLRLSCAASGFTFSSYAMSWVRQAPGKGLEWVSAISGGGGNTYYADSVKGRFTISRDNSKNTLYLQMNSLRAEDTAVYYCSKVATDYWGQGTLVTVSS VL: QPVLTQSSSASASLGSSVKLTCTLSSGHSSYIIAWHQQQPGKAPRYLMKLEGSGSYNKGSGVPDRFSGSSSGADRYLTISNLQFEDEADYYCETWDSYTVVFGGGTKLTVL
Result: -10

Query: Need Activity at 133 nM Antibody Concentration (% Survival Inhibition), N = 2, item 33D5 (antibody, V domains shown) VH: QVQLVQSGAEVKKPGASVKVSCKASGYTFGSYDINWVRQATGQGLEWMGWMNPNSGNTGYAQKFQGRVTLTRNTSIRTVYMELSSLRSEDTAVYYCARGGYSNLGWFDPWGQGSLVTVSS VL: DIQMTQSPSSVSVSVGDRVTITCRASQGISSWLAWYQQKPGKAPKLLIYAASSLQSGVPSRFSGSGSGTDFTLTISSLQPEDFATYYCQQANSFPFTFGPGTKVDIK
Result: -2

Query: Need Activity at 133 nM Antibody Concentration (% Survival Inhibition), N = 2, item 32G7 (antibody, V domains shown) VH: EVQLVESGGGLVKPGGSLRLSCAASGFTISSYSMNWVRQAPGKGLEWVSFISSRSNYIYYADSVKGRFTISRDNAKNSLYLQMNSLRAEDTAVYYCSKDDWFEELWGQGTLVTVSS VL: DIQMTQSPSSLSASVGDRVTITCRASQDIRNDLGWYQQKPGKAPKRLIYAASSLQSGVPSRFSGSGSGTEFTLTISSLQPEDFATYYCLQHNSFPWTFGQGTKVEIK
Result: 67
